target: UniProt P35408
Sequence (P35408 whole entry): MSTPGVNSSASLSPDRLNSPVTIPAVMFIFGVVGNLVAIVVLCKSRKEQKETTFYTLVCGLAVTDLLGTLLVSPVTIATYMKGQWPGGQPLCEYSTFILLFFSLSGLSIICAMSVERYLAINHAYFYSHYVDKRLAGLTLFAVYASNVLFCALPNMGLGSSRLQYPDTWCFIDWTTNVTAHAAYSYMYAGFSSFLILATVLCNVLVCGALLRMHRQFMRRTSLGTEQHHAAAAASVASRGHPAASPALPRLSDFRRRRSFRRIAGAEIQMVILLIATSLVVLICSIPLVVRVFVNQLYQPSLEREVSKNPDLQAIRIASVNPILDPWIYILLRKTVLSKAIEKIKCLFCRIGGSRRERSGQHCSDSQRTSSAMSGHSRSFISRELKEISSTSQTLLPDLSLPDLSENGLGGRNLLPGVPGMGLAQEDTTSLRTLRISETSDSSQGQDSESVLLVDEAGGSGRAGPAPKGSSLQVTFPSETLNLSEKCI
pKi: −log10 of the molar value.
readout: pKi

Dear colleague, I am looking for the recorded pKi of the following molecule: O=C(O)c1ccc(CCC[C@H]2CCC(=O)[C@@H]2COc2cc(Cl)cc(CO)c2)s1 < 5.00
